Test Target: Serine/threonine-protein kinase PLK1 (Homo sapiens) (UniProt P53350)
Sequence (P53350 whole entry, looked up, the tested form may be a part): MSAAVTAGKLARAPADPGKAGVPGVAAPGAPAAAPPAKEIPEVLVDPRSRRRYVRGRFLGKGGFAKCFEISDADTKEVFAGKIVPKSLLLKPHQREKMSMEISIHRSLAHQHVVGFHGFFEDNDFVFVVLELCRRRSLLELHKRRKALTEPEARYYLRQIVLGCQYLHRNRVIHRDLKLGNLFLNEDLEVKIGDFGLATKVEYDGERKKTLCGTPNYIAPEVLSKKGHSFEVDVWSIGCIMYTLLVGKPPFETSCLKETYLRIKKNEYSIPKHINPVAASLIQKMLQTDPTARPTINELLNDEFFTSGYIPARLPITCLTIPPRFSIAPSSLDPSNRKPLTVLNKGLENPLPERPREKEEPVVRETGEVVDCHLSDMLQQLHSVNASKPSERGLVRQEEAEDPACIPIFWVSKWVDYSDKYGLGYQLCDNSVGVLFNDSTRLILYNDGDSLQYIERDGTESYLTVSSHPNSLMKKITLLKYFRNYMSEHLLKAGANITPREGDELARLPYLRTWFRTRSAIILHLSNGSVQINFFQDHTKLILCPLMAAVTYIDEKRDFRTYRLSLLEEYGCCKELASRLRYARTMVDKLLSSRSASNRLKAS
Method Description: Plk1 polo box domain binding inhibitors, primary screen, biochemical, fluorescence polarization (AID 693)
Experimental Context: Plk1 PBD phosphopeptide binding, hits give high values,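 tested at about 20 µM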
In all, about 97,000 compounds went through this assay and about 130 (0.13%) were called active. This is one part of a sample in which actives are shown more often than they occur.
Metric Name: inhibition

Here's what some known entries look like.
> print(dat)
                                   compound             result
1  CC1CCCN(C(C(=O)Nc2ccc(C(C)C)cc2)c2ccc3c(c2)OCO3)C1 (centres undefined)  -23.5% (inactive)
2  O=C(COC(=O)c1ccccc1SCC(=O)NC1CCCCC1)NC1CCCCC1   45.4% (inactive)
3        Cc1ccc(Cl)cc1NC(=O)COC(=O)C1CCCCC1  -19.8% (inactive)
4  CCC1(C)Cc2c(sc3nnn(CC(=O)Nc4ccc(Cl)cc4)c(=O)c23)CO1 (centres undefined)  -26.3% (inactive)
5  Cc1nnc(SCC(=O)N/N=C/c2cn(-c3ccccc3)nc2-c2ccc(F)cc2)n1-c1ccccc1  -7.66% (inactive)

Lab note: next compound to report on.
Noted for N#Cc1ccsc1NC(=O)CN1CCCCC1 : its inhibition reads -12.8% (inactive)

###

Test Target: Serine/threonine-protein kinase PLK1 (Homo sapiens)
Method Description: Plk1 polo box domain binding inhibitors, primary screen, biochemical, fluorescence polarization (AID 693)
Experimental Context: Plk1 PBD phosphopeptide binding, hits give high values,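 tested at about 20 µM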
Screen size: about 97,000 compounds; about 130 (0.13%) were called active. The sample holds actives, similar compounds and a random draw of the others, so the mix is not that of the screen.
Entries and their inhibition values follow.
Just the number please, in %, no unit attached.

> print(dat)
                                   compound  metric.name  recorded.number
1  COc1cc(C(=O)OC(C)C(=O)NCC2CCCCC2)cc(NC(=O)c2ccco2)c1OC (stereo unspecified)   inhibition             2.04
2   Cc1ccc(NC(=O)COc2ccc(-n3ccnc3)cc2)cc1Cl   inhibition                2
3  CCCC(C)C(=O)Nc1ccc(NC(C)=O)cc1 (stereo unspecified)   inhibition            -14.8

Noted for Cc1cnc(NC(=O)C2CCCC2)s1 : its inhibition reads -23.2

Noted for CC1(C)Cc2cccc(OCC(N)=O)c2O1 : its inhibition reads 0.26

Noted for CCOC(=O)C1CSC(CC(=O)Nc2ccc(OCC)cc2)C(=O)N1 (stereo unspecified) : its inhibition reads 13.9

###

Test Target: Serine/threonine-protein kinase PLK1 (Homo sapiens) (UniProt P53350)
Method Description: Plk1 polo box domain binding inhibitors, primary screen, biochemical, fluorescence polarization (AID 693)
Experimental Context: Plk1 PBD phosphopeptide binding, hits give high values,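 tested at about 20 µM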
The campaign covered roughly 97,000 compounds. About 130 (0.13%) were called active. Only a selection was taken, and actives are over-represented in it overall.
Entries and their inhibition values follow.
Just the number please, in %, no unit attached.

> print(dat)
                                   compound  uom  recorded.number
1  COc1ccc(NC(=O)Cn2c(=O)n(Cc3ccco3)c(=O)c3ccccc32)cc1    %             10.4
2            CC1(C)CC(=O)C=C(NCCN2CCNCC2)C1    %              -22
3             CC1(C)CC(=O)C=C(NCc2ccncc2)C1    %             41.4
4          CC1(C)CC(=O)C=C(NCCCNC2CCCCC2)C1    %            -8.28

Noted for COC(=O)c1ccc(C(=O)OC)c(NC(=S)N2CCCCC2)c1 : its inhibition reads -20.3

Noted for Cc1ccc2[nH]c(=O)c(CN(CCCN(C)C)C(=O)Nc3cccc(Cl)c3)cc2c1 : its inhibition reads 3.64

Noted for O=C1CC(C(F)(F)C(F)(F)C(F)(F)C(F)(F)F)=Nc2ccccc2N1 : its inhibition reads 5.5

Noted for CCC(c1nnnn1C(C)(C)C)N(Cc1cc2cccc(C)c2n2nnnc12)C1CCCC1 (stereo unspecified) : its inhibition reads -13.2

Cited source for all entries: PubChem BioAssay AID693
